# experimental.target: T1, human Trop-2 expressed on cell surface (human, UniProt P09758 27-323)
# T1 construct: whole, on cells; also called cell surface Trop-2
# T1 sequence (looked up): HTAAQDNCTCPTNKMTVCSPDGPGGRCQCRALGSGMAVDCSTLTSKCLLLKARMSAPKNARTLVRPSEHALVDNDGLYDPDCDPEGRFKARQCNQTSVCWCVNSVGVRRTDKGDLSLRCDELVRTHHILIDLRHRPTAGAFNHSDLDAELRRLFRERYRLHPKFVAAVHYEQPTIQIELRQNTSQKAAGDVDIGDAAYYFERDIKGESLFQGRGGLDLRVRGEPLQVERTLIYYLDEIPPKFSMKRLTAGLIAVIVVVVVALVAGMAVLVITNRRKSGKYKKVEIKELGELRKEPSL
# experiment: flow cytometry, MDA-MB-231-GFP cells
What pEC50 was measured for each of the following?
One number for each entry, as −log10 of the molar value.

Example results:
binder: 65D5 (antibody, V domains shown, Rabbit-derived clone; LEM construct: VH + rabbit IgG CH1 + human IgG1 CH2-CH3) VH: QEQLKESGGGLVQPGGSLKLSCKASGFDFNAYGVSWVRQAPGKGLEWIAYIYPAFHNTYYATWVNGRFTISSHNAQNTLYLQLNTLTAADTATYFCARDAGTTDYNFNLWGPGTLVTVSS VL: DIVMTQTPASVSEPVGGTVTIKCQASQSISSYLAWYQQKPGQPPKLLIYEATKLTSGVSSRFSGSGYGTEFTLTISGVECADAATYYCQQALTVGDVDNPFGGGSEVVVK
value.observed: 11.00
--
binder: Sacituzumab govitecan (antibody, INN chains, looked up, V domains shown, SN-38 payload (govitecan)) VH: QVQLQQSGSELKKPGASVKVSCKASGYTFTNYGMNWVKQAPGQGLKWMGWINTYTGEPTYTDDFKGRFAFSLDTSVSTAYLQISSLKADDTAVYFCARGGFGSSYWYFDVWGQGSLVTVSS VL: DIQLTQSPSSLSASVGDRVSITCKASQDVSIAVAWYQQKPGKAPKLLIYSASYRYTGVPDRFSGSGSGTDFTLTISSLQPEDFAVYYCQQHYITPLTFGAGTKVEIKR
value.observed: 10.05
--
binder: 10A9 (antibody, V domains shown, Rabbit-derived clone; LEM construct: VH + rabbit IgG CH1 + human IgG1 CH2-CH3) VH: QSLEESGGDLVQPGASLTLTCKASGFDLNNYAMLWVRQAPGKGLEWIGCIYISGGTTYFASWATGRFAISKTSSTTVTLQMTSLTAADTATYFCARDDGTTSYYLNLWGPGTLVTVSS VL: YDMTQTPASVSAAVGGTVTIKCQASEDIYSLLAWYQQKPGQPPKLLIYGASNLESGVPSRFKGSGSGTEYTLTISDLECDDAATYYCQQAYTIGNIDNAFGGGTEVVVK
value.observed: 10.40
--
binder: 5D4-1 (antibody, V domains shown) VH: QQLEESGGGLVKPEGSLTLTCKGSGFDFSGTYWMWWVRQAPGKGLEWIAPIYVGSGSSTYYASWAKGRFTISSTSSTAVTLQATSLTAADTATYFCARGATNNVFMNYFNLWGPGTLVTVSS VL: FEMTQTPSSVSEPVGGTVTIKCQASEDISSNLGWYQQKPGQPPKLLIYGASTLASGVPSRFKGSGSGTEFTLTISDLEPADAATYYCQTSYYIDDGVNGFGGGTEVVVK
value.observed: 11.00

# next binder below
Input line: Given the binder 72F12 (antibody, V domains shown, Rabbit-derived clone; LEM construct: VH + rabbit IgG CH1 + human IgG1 CH2-CH3) VH: QEQLKESGGGLVQPGGSLKLSCKASGFDFNNYGVSWVRQAPGKGLEWIAYIYPAFHNTYYATWVNGRFTISSHNAQNTLYLQLNSLTAADTATYFCARDAGSVDYNFNLWGPGTLVTVSS VL: DVVMTQTPASVEVAVGGTVTIKCQASKNIDSNLAWYQQKPGQPPKQLIYAASTLASGVSSRFSGSGYGAEFTLTISGVECADAATYYCQQALTIGNVDNPFGGGSEVVVK , what is its reported pEC50?
Output line: 11.00
